# ASSAY_TARGET: UniProt:P05177
# Sequence (P05177 whole entry): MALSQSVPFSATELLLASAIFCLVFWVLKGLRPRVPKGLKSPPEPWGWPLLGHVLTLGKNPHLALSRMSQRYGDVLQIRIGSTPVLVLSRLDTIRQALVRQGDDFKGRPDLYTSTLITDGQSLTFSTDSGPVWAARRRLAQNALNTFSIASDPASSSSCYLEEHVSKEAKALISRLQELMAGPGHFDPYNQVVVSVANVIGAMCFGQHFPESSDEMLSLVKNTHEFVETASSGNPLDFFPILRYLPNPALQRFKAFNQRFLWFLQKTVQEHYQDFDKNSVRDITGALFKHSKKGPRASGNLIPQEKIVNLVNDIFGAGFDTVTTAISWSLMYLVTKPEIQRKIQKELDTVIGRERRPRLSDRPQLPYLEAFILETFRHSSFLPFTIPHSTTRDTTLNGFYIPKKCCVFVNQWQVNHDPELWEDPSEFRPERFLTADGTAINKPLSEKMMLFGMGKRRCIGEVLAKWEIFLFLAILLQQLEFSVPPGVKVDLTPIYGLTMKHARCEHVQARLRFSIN
# ASSAY_DETAILS: Induction of CYP1A2-mediated 7-ethoxyresorufin O-deethylase activity in human hepatocytes at 5 uM after 10 mins by fluorescence assay relative to control
# Type: ADME, cell-based, Hepatocyte
# TEST_CONTEXT: probe 7-ethoxyresorufin, read-out: FC
VALUE_KIND: fold induction at 10 min, 5 µM
// keep it numeric: no unit symbol after the value

| COMPOUND_SMILES | fold induction at 10 min, 5 µM |
| --- | --- |
| CC(C)Oc1ccc(-c2nc(-c3cccc4c3cnn4CCC(=O)O)no2)cc1Cl | 7.7 |

Given item Cc1c(-c2noc(-c3ccc(OC(C)C)c(C#N)c3)n2)ccc2c1CCN(CCC(=O)O)C2 , the value recorded as its fold induction at 10 min, 5 µM is 1.1

For reference, reported fold induction at 10 min, 5 µM for CC(C)Oc1ccc(-c2nc(-c3cccc4c3OCCN(CCCC(=O)O)C4)no2)cc1Cl stands at 1.1

====

# ASSAY_DETAILS: Oral bioavailability in CD rat at 3 mg/kg
# Format: ADME, organism-based
# TEST_CONTEXT: in vivo
VALUE_KIND: bioavailability (%)
Write it as a number; the unit % goes unstated.

Worked cases, answers included:
| COMPOUND_SMILES | bioavailability, % |
| --- | --- |
| CC(C)Oc1ccc(-c2nc(-c3ccc4c(c3)CCN(C(CO)CO)CC4)no2)cc1C#N | 68 |
| Cc1c(-c2noc(-c3ccc(OC(C)C)c(C#N)c3)n2)ccc2c1CCN(C[C@@H](O)CO)C2 | 56 |
| Cc1c(-c2noc(-c3ccc(OC(C)C)c(C#N)c3)n2)ccc2c1OCCN(C(CO)CO)C2 | 69 |

Turning now to a further compound:
# compound CC(C)Nc1ncc(-c2nc(-c3ccc4c(c3)CCN(C(CO)CO)CC4)no2)cc1C#N ; its bioavailability = 67

====

# System: CYP1A2
# ASSAY_DETAILS: Induction of CYP1A2 mRNA expression in Sprague-Dawley rat hepatic microsomes at 30 mg/kg, po QD for 4 days relative to control
# Format: ADME, organism-based, Liver
# TEST_CONTEXT: read-out: FC
VALUE_KIND: fold induction at 96 h
// keep it numeric: no unit symbol after the value

Solved cases (3 shown):
| COMPOUND_SMILES | RECORDED_NUMBER |
| --- | --- |
| Cc1c(-c2noc(-c3ccc(OC(C)C)c(C#N)c3)n2)ccc2c1CCN(C[C@@H](O)CO)C2 | 4.6 |
| CC(C)Oc1ccc(-c2nc(-c3ccc4c(c3)CCN(C(CO)CO)CC4)no2)cc1C#N | 7.3 |
| Cc1c(-c2noc(-c3ccc(OC(C)C)c(C#N)c3)n2)ccc2c1CCN(C(CO)CO)C2 | 1.5 |

Turning now to a further record.
fold induction at 96 h reported for this compound Cc1c(-c2noc(-c3ccc(OC(C)C)c(C#N)c3)n2)ccc2c1CCN(C[C@H](O)CO)C2 : 10

====

# ASSAY_TARGET: Sphingosine 1-phosphate receptor 3 (Homo sapiens, UniProt Q99500)
# Sequence (Q99500 whole entry): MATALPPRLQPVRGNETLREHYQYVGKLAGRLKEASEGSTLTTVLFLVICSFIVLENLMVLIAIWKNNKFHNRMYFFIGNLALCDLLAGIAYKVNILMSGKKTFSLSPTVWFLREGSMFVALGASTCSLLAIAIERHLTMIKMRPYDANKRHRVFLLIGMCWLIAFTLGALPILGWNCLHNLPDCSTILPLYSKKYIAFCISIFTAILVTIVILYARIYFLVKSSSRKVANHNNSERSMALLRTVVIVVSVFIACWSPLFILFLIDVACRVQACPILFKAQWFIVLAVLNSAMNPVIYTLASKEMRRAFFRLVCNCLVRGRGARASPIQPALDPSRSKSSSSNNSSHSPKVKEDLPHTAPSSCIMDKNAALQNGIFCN
# ASSAY_DETAILS: Agonist activity at S1P3 receptor (unknown origin) expressed in RBL membranes assessed as GTPgammaS binding after 3 hrs
VALUE_KIND: EC50

Given item Cc1c(-c2noc(-c3ccc(OC(C)C)c(C#N)c3)n2)ccc2c1CCN(C[C@@H](O)CO)C2 , the value recorded as its EC50 is > 31.6 µM

====

Listing of entries alongside the reported AUC/dose.
# Test system: Rattus norvegicus
# ASSAY_DETAILS: Dose normalized AUC in Sprague-Dawley rat at 30 mg/kg, po QD measured on day 1
# Format: ADME, organism-based
# TEST_CONTEXT: in vivo
Numeric answer only, unit kg·min/L assumed.

Previously resolved entries follow.
| COMPOUND_SMILES | VALUE_KIND | RECORDED_NUMBER |
| --- | --- | --- |
| Cc1c(-c2noc(-c3ccc(OC(C)C)c(C#N)c3)n2)ccc2c1CCN(C[C@@H](O)CO)C2 | AUC/dose | 15 |
| Cc1c(-c2noc(-c3ccc(OC(C)C)c(C#N)c3)n2)ccc2c1CCN(C(CO)CO)C2 | AUC/dose | 9 |
| CC(C)Oc1ccc(-c2nc(-c3ccc4c(c3)CCN(C(CO)CO)CC4)no2)cc1C#N | AUC/dose | 48 |

Next:
Please fill in: AUC/dose reported for Cc1c(-c2noc(-c3ccc(OC(C)C)c(C#N)c3)n2)ccc2c1CCN(C[C@H](O)CO)C2 = 9

====

# ASSAY_DETAILS: Intrinsic clearance in dog hepatocytes by LC-MS/MS analysis
# TEST_CONTEXT: read-out: CLH
VALUE_KIND: CLint scaled
Please make sure the unit comes right after the number.

Lab note: measured CLint scaled of Cc1c(-c2noc(-c3ccc(OC(C)C)c(C#N)c3)n2)ccc2c1CCN(C[C@@H](O)CO)C2 was 7.1 mL/min/kg

====

Reported Cmax values follow for various compounds
# ASSAY_DETAILS: Cmax in Sprague-Dawley rat at 19 mg/kg, po QD measured on day 4
# Format: ADME, organism-based
# Set-up: dose 19 mg/kg, route oral
# TEST_CONTEXT: in vivo
Number only, in ng/mL; omit the unit.

| COMPOUND_SMILES | Cmax [ng/mL] |
| --- | --- |
| Cc1c(-c2nnc(-c3ccc(OC(C)C)c(C#N)c3)s2)ccc2c1CCN(C(CO)CO)C2 | 2320 |

The recorded Cmax for Cc1c(-c2noc(-c3ccc(OC(C)C)c(C#N)c3)n2)ccc2c1CCN(C[C@@H](O)CO)CC2 is 1530

====

# ASSAY_DETAILS: AUC in Sprague-Dawley rat at 22 mg/kg, po QD measured on day 1
# Type: ADME, organism-based
# TEST_CONTEXT: in vivo
VALUE_KIND: AUC (ng·h/mL)
Kindly provide the numeric value in ng·h/mL only, without the unit symbol.

Note to self: AUC recorded for Cc1c(-c2noc(-c3cnc(OC(C)C)c(C#N)c3)n2)ccc2c1CCN(C(CO)CO)C2 was 24300

====

# ASSAY_DETAILS: AUC in Sprague-Dawley rat at 30 mg/kg, po QD measured on day 4
# Assay type: ADME, organism-based
# TEST_CONTEXT: in vivo
List of AUC values.
Give me the value, and tack the unit on after it.

Completed entries (count: 3):
| COMPOUND_SMILES | RESULT |
| --- | --- |
| Cc1c(-c2noc(-c3ccc(OC(C)C)c(C#N)c3)n2)ccc2c1CCN(C[C@@H](O)CO)C2 | 7000 ng·h/mL |
| CC(C)Oc1ccc(-c2nc(-c3ccc4c(c3)CCN(C(CO)CO)CC4)no2)cc1C#N | 23100 ng·h/mL |
| Cc1c(-c2noc(-c3ccc(OC(C)C)c(C#N)c3)n2)ccc2c1CCN(C[C@H](O)CO)C2 | 3600 ng·h/mL |

The record that follows has no AUC shown yet.
GET /value?item= Cc1c(-c2noc(-c3ccc(OC(C)C)c(C#N)c3)n2)ccc2c1CCN(C(CO)CO)C2 &field=AUC returns 7640 ng·h/mL

====

Property: half-life; scope: individual compounds
# ASSAY_DETAILS: Half life in CD rat at 1 mg/kg, iv
# Type: ADME, organism-based
# TEST_CONTEXT: in vivo
Record the value in min, omitting the unit from your answer.

| COMPOUND_SMILES | half-life, min |
| --- | --- |
| Cc1c(-c2noc(-c3ccc(OC(C)C)c(C#N)c3)n2)ccc2c1OCCN(C(CO)CO)C2 | 60 |
| CC(C)Nc1ncc(-c2nc(-c3ccc4c(c3)CCN(C(CO)CO)CC4)no2)cc1C#N | 486 |

The record that follows has no half-life shown yet.
Field half-life (entry Cc1c(-c2noc(-c3ccc(OC(C)C)c(C#N)c3)n2)ccc2c1CCN(C[C@@H](O)CO)C2 ) reads 102

====

# Test system: CYP1A2
# ASSAY_DETAILS: Induction of CYP1A2 mRNA expression in Sprague-Dawley rat hepatic microsomes at 24 mg/kg, po QD for 4 days relative to control
# Assay type: ADME, organism-based, Liver
# TEST_CONTEXT: read-out: FC
VALUE_KIND: fold induction at 96 h
The response must contain the number and no unit.

| COMPOUND_SMILES | fold induction at 96 h |
| --- | --- |
| CC(C)Nc1ncc(-c2nc(-c3ccc4c(c3)CCN(C(CO)CO)CC4)no2)cc1C#N | 2 |

get_value(item= Cc1c(-c2noc(-c3cnc(NC(C)C)c(C#N)c3)n2)ccc2c1CCN(C(CO)CO)CC2 , readout=fold induction at 96 h) returns 2

====

# ASSAY_DETAILS: AUC in Sprague-Dawley rat at 19 mg/kg, po QD measured on day 4
# Type: ADME, organism-based
# TEST_CONTEXT: in vivo
Property: AUC; scope: individual molecules
Could you give me the number in ng·h/mL? Just the number is fine.

| COMPOUND_SMILES | AUC, ng·h/mL |
| --- | --- |
| Cc1c(-c2nnc(-c3ccc(OC(C)C)c(C#N)c3)s2)ccc2c1CCN(C(CO)CO)C2 | 27800 |

Given item Cc1c(-c2noc(-c3ccc(OC(C)C)c(C#N)c3)n2)ccc2c1CCN(C[C@@H](O)CO)CC2 , the value recorded as its AUC is 26000
